molecular target: Anti-PSMA Fab (006 PSMA Fab); assay: clonal phage ELISA on biotinylated PSMA Fab captured on neutravidin; PSMA antigen as competitor; anti-M13-HRP detection
Where no end group is shown, it is not given here.
Measured attribute: phage binding ELISA signal (Anti-PSMA Fab, wells pre-incubated with PSMA antigen)
# respond with the number and nothing more

Take a look at these entries with their results.
PEKWCIPDWMCTVY [Phage-2311] | 0.0815
VQNWCIPAWMCEGK [Phage-2304] | 0.0686
FANWCTPSWMCNFT [Phage-2302] | 0.152

Task item: Fill in: phage binding ELISA signal (Anti-PSMA Fab, wells pre-incubated with PSMA antigen) of YDRLCIPMWMCSSV [Phage-2307] is ___
Reply: 0.0715

Task item: Fill in: phage binding ELISA signal (Anti-PSMA Fab, wells pre-incubated with PSMA antigen) of IEKWCIPLWMCEMQ [Phage-2309] is ___
Reply: 0.0726

Task item: Fill in: phage binding ELISA signal (Anti-PSMA Fab, wells pre-incubated with PSMA antigen) of LTKWCIPEWMCAVE (cysteine pairing not given here; also: displayed on bacteriophage by fusion to pIII) [Phage-2303] is ___
Reply: 0.102

Task item: Fill in: phage binding ELISA signal (Anti-PSMA Fab, wells pre-incubated with PSMA antigen) of QNTWCIPPWMCEVF [Phage-2306] is ___
Reply: 0.0806

Task item: Fill in: phage binding ELISA signal (Anti-PSMA Fab, wells pre-incubated with PSMA antigen) of SMKWCTPAWMCERL [Phage-2301] is ___
Reply: 0.115

Task item: Fill in: phage binding ELISA signal (Anti-PSMA Fab, wells pre-incubated with PSMA antigen) of MEIWCKPAWMCEST [Phage-2310] is ___
Reply: 0.0714

Task item: Fill in: phage binding ELISA signal (Anti-PSMA Fab, wells pre-incubated with PSMA antigen) of EAKWCTPPWMCMSM [Phage-2305] is ___
Reply: 0.0593

Task item: Fill in: phage binding ELISA signal (Anti-PSMA Fab, wells pre-incubated with PSMA antigen) of WVQWCIPPWMCEPS [Phage-2300] is ___
Reply: 0.14
